measured-target: human KEAP1 (N-term, residues 321-609) (Homo sapiens, UniProt Q14145)
Construct: human KEAP1 (N-term, residues 321-609) enzyme
Sequence (Q14145 321-609): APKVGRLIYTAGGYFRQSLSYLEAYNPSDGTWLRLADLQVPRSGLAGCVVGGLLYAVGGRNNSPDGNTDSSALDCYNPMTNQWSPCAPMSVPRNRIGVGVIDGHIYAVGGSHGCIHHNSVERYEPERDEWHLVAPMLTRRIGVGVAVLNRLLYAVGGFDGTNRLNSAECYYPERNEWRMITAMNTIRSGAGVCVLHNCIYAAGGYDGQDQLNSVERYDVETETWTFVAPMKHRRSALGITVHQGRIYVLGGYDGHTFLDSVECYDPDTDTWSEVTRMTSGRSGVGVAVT
assay-procedure: KEAP1 Kelch Fluorescence Polarization (FP) Assay
experimental-setup: inhibition of Kelch domain-NRF2 interaction; 2 nM FITC-labelled NRF2 peptide, 25 nM KEAP1, 1 h at room temperature; compounds below 10 nM cannot be differentiated
pIC50: −log10 of the molar value.
readout: pIC50

INSERT INTO results (compound, readout, reported) VALUES
  ('Cn1nnc(COc2c(F)cc(Cl)c3c2[C@@H](CN2CC4(CC4)CC2=O)N(C(=O)[C@@H]2CCCC[C@]2(C)c2nnn[nH]2)CC3)c1C(F)F [Example 1]', 'pIC50', 8.32),
  ('Cc1nnc(COc2c(F)cc(Cl)c3c2[C@@H](CN2CC4(CC4)CC2=O)N(C(=O)[C@@H]2CCCC[C@]2(C)C(=O)O)CC3)n1C [Example 5]', 'pIC50', 8.31),
  ('C[C@@H]1CC(=O)N(C[C@@H]2c3c(c(Cl)cc(F)c3OCc3nnn(C)c3C(F)F)CCN2C(=O)[C@@H]2CCCC[C@]2(C)C(=O)O)C1 [Example 3]', 'pIC50', 8.36),
  ('Cn1nnc(COc2c(F)cc(Cl)c3c2[C@@H](CN2CCOCC2=O)N(C(=O)[C@@H]2CCCC[C@]2(C)C(=O)O)CC3)c1C(F)F [Example 2]', 'pIC50', 8.27),
  ('Cn1cc(COc2c(F)cc(Cl)c3c2[C@@H](CN2CC4(CC4)CC2=O)N(C(=O)[C@@H]2CCCC[C@]2(C)C(=O)O)CC3)nn1 [Example 6]', 'pIC50', 8.30),
  ('C[C@]1(C(=O)O)CCC[C@H]1C(=O)N1CCc2c(Cl)cc(F)c(OCc3nnn4c3CCCC4)c2[C@H]1CN1CC2(CC2)CC1=O [Example 4]', 'pIC50', 8.30);
